The reported measurements were obtained from ChEMBL document CHEMBL4130562.

This listing pairs compounds with measured MIC.
- Test system: Haemophilus influenzae
- protocol_notes: Antibacterial activity against Haemophilus influenzae ATCC 49247 by microbroth dilution method
- Assay type: functional

mol	output_unit	relation_symbol	MIC
O=C1CCOc2ccc(-c3ccc(N4C[C@H](CO)OC4=O)cc3F)cc2N1	µg/mL	=	0.5
O=C1COc2c(cccc2-c2ccc(N3C[C@H](CO)OC3=O)cc2F)N1	µg/mL	=	1
O=C1COc2cccc(-c3ccc(N4C[C@H](CO)OC4=O)cc3F)c2N1	µg/mL	>	32
COC(=O)NC[C@H]1CN(c2ccc(-c3ccc4c(c3)NC(=O)CO4)c(F)c2)C(=O)O1	µg/mL	=	0.125
Cl.N=C(N)NC[C@H]1CN(c2ccc(-c3ccc4c(c3)NC(=O)CO4)c(F)c2)C(=O)O1	µg/mL	>	32
CC(=S)NC[C@H]1CN(c2ccc(-c3ccc4c(c3)NC(=O)CO4)c(F)c2)C(=O)O1	µg/mL	=	0.125
O=C1Cc2ccc(-c3ccc(N4C[C@H](CO)OC4=O)cc3F)cc2N1	µg/mL	=	2
O=C1COc2ccc(-c3ccc(N4C[C@H](CO)OC4=O)cc3F)nc2N1	µg/mL	=	1
O=C(CO)NC[C@H]1CN(c2ccc(-c3ccc4c(c3)NC(=O)CO4)c(F)c2)C(=O)O1	µg/mL	=	0.5
